# System: KM12 colon
# Test Summary: NCI-60 one-dose screen, 48 h
# Assay Conditions: 10 µM unless noted
About 83,000 compounds went through this panel and 20% of them were active in at least one assay; those are over-represented in the sample as a whole. Activity calls are given as the source filed them. How the source made its calls: active means growth percent below 10; inactive means the rest.
Mark one answer only. Choices: label 1 = active, label 0 = inactive

Task: Tell me the assay call for `CN1CCN(c2ccc3nc4c(nc3c2C(F)(F)F)C(=O)c2ncccc2C4=O)CC1` please.
Result: label 0

Task: Tell me the assay call for `Cc1ccc(S(=O)(=O)c2nc(-c3ccccc3)oc2Sc2nc3ccccc3s2)cc1` please.
Result: label 0

Task: Tell me the assay call for `CSC(SC)=C(C#N)c1nc2ccccc2s1` please.
Result: label 0

Task: Tell me the assay call for `COC(=O)c1ccc(NC(=O)Nc2ccc(C(=O)OC)cc2)cc1` please.
Result: label 0

Task: Tell me the assay call for `COc1ccc(C[n+]2c3ccccc3n3c4ccc(N)cc4ccc32)c(OC)c1OC` please.
Result: label 0

Task: Tell me the assay call for COc1cc2c(c(OC)c1OC)C(=O)CC(c1cccc(NC(=O)c3ccc(C#N)cc3)c1)O2 (stereo not given) please.
Result: label 0

Task: Tell me the assay call for `O=C(CCCCCCN1CC(=O)N2[C@H](c3ccc(Cl)cc3)c3[nH]c4ccccc4c3C[C@@H]2C1=O)NO` please.
Result: label 0

Task: Tell me the assay call for `CN1CCN(CCOc2ccc(-c3cnc4c(-c5cccc(F)c5F)cnn4c3)cc2)CC1` please.
Result: label 1

Task: Tell me the assay call for COc1ccc(CCN2C(=O)/C(=C/c3ccc(C4Oc5ccccc5C5CC(c6ccccc6)=NN54)cc3)SC2=S)cc1 (stereo not given) please.
Result: label 0

Task: Tell me the assay call for `CC(=O)c1ccc(Nc2nccc(-c3ccc4ccccc4c3)n2)cc1` please.
Result: label 0

###

# Test system: UACC-257 melanoma
# Test Summary: NCI-60 one-dose screen, 48 h (100 = growth as untreated, 0 = no growth, -100 = all killed)
# Assay Conditions: 10 µM unless noted
The panel holds about 83,000 compounds, 20% with a hit somewhere; the sample as a whole holds those more often.
Please use class 1 whenever growth is not below 80%, and class 0 whenever it is.

Task: // inclusive: growth at least 80%? input: `C[n+]1ccc(CCc2c[nH]c3ccccc23)cc1`
Result: class 1

Task: // inclusive: growth at least 80%? input: `CCOC(=O)/C=C1\S/C(=N\Nc2cc(=O)[nH]c3ccccc23)N(c2ccccc2)C1=O`
Result: class 1

Task: // inclusive: growth at least 80%? input: `CSc1nn2c(-c3ccc4ccccc4c3)ccnc2c1C#N`
Result: class 0

Task: // inclusive: growth at least 80%? input: `CC/C=C\C[C@H](O)C/C=C1/C(=O)C=C[C@@H]1C/C=C\CCCC(=O)O`
Result: class 0

Task: // inclusive: growth at least 80%? input: `O=C(N/N=C\c1ccccc1S(=O)(=O)O)N/N=C/c1ccccc1S(=O)(=O)O`
Result: class 1

Task: // inclusive: growth at least 80%? input: `CCN(CC)CCCN1C(=O)c2c(c(C)c3c(oc4ccc(O)cc43)c2C)C1=O`
Result: class 1

Task: // inclusive: growth at least 80%? input: CCN1C(=O)N(CC)C2Nn3c(s/c(=C\c4ccccc4Br)c3=O)=NC21 (stereo not given)
Result: class 0

Task: // inclusive: growth at least 80%? input: CN(Cc1cnc2nc(N)nc(N)c2n1)c1ccc(C(=O)NC(CCC(=O)O)C(=O)O)cc1Br (stereo not given)
Result: class 0

Task: // inclusive: growth at least 80%? input: `O=C(O)[C@@H](Cc1ccc2ccccc2c1)NC(=O)n1c2ccccc2c2ccccc21`
Result: class 0

###

# System: COLO 205 colon
# Test Summary: NCI-60 one-dose screen, 48 h
# Assay Conditions: 10 µM unless noted
Compounds without any hit were thinned out: in the full panel of roughly 83,000, 20% have a hit. Activity calls are given as the source filed them. The calls were made as follows: active = growth percent below 10; inactive = the rest.
Mark one answer only. Choices: T (active), F (inactive)

Task: Tell me the assay call for `COc1ccc(C[n+]2c3ccccc3n3c4ccc(N)cc4ccc32)c(OC)c1OC` please.
Result: F

Task: Tell me the assay call for `COc1ccc2nc(Cl)c(/C=C3\CC(c4ccccc4)=NN(c4ccccc4)C3=O)cc2c1` please.
Result: F

Task: Tell me the assay call for `C=CC(=O)Nc1ccc(Oc2nccc(Nc3nnc(-c4ccc(C)cc4)s3)n2)cc1` please.
Result: F

Task: Tell me the assay call for CC1=CCC(OC(=O)C(C)(C)CC(O)(C(C)O)C(O)C2(C)C=CC(Cc3ccc(C(C)C)cc3)(C(C)C)CC2)(C(C)C)CC1 (stereo not drawn) please.
Result: F

Task: Tell me the assay call for `Cc1ccc(-c2csc(N(C(=O)N3CCN(c4cc5c(cc4F)c(=O)c(C(=O)O)cn5C4CC4)CC3)c3ccccc3)n2)cc1` please.
Result: T

Task: Tell me the assay call for `COc1ccc2c(c1)CCc1[nH]nc(-c3cc(OC)c(OC)c(OC)c3)c1-2` please.
Result: T

Task: Tell me the assay call for `CCOC(=O)c1c(C)nc2c(c1N)/C(=C/c1ccc(OC)cc1)C(=O)N2Cc1ccccc1` please.
Result: F

Task: Tell me the assay call for `O=C(CSc1nnc(-c2cc(-c3ccccc3)nc3ccccc23)n1-c1ccccc1)Nc1ccc(C(=O)/C=C/c2ccc(Cl)cc2)cc1` please.
Result: F

###

# Tested on: SK-MEL-2 melanoma
# Test Summary: NCI-60 one-dose screen, 48 h
# Assay Conditions: 10 µM unless noted
The panel holds about 83,000 compounds, 20% with a hit somewhere; the sample as a whole holds those more often. Calls of active or inactive are those of the source. How the source made its calls: active means growth percent below 10; inactive means the rest.
Mark one answer only. Choices: 1 for active, -1 for inactive

Task: Tell me the assay call for `COc1cccc(CNc2c3ccccc3nc3ccccc23)c1` please.
Result: -1

Task: Tell me the assay call for `CC1(C)N=C(N)N=C(N)N1c1ccc(CCCCc2ccccc2)c(Cl)c1` please.
Result: 1

Task: Tell me the assay call for CCN1C(=O)N(CC)C2C1NN=c1s/c(=C\c3ccc(C(F)(F)F)cc3)c(=O)n12 (stereo not given) please.
Result: -1

Task: Tell me the assay call for `Cc1c(CC(=S)N2CCOCC2)nnn1-c1cccc(C(F)(F)F)c1` please.
Result: -1

Task: Tell me the assay call for `Oc1c(CN2CCOCC2)cc(COCc2ccccc2)c2cccnc12` please.
Result: -1

Task: Tell me the assay call for Nc1nc(N)c2c(n1)NC(c1cccc(Nc3ccnc4cc(C(F)(F)F)ccc34)c1)CC(c1ccccc1)=N2 (stereo not given) please.
Result: -1

Task: Tell me the assay call for CN(C)CCCC1(c2ccc(F)cc2)OCc2cc(-c3cc4ccccc4s3)ccc21 (stereo not given) please.
Result: -1

Task: Tell me the assay call for `O=C1/C(=C2\SC(=S)N(C3CC3)C2=O)SC(=S)N1C1CC1` please.
Result: -1

Task: Tell me the assay call for `C#COc1cccc(Nc2ncnc3cc(NC(=O)[C@@H](C)Cl)ccc23)c1` please.
Result: -1

Task: Tell me the assay call for CC(=O)ON1CCCC(P(=O)(OCCSC(=O)C(C)(C)C)OCCSC(=O)C(C)(C)C)C1=O (stereo not given) please.
Result: -1

###

# Tested on: HOP-62 NSCLC
# Test Summary: NCI-60 one-dose screen, 48 h (100 = growth as untreated, 0 = no growth, -100 = all killed)
# Assay Conditions: 10 µM unless noted
About 83,000 compounds went through this panel and 20% of them were active in at least one assay; those are over-represented in the sample as a whole.
Property: growth (%)
Please reply with the bare figure in % and do not write the unit itself.

Task: Using known records, supply growth for N=c1c(S(=O)(=O)c2ccccc2)cc2c(=O)n3ccccc3nc2n1CC1CCCO1 (configuration not stated)
Result: 95

Task: Using known records, supply growth for `C=CCN1C(=O)c2cccc3c(N4CCOCC4)ccc(c23)C1=O`
Result: 26.4

Task: Using known records, supply growth for CCN1C(=O)N(CC)C2C1NN=c1s/c(=C3\C(=O)N(CC(C)C)c4ccccc43)c(=O)n12 (configuration not stated)
Result: 45.6

Task: Using known records, supply growth for `CCN1CCN(C(=O)[C@]23CC[C@@H](C)[C@H](C)[C@@H]2C2=CC[C@@H]4[C@@]5(C)C/C(=C/c6cccnc6)C(=O)C(C)(C)[C@@H]5CC[C@@]4(C)[C@]2(C)CC3)CC1`
Result: 44.5

Task: Using known records, supply growth for `C=C1C(=O)O[C@H]2[C@H]1CC/C(COC(=O)NCc1ccc(Cn3c(=O)sn(-c4ccc(C#N)cc4)c3=O)cc1)=C\CC[C@@]1(C)O[C@@H]21`
Result: 92.2

Task: Using known records, supply growth for `CC(C)(C)n1cc(-c2ccnc(NCCCNS(=O)(=O)c3cccc4ccccc34)c2)c(-c2cccc(F)c2)n1`
Result: 92.2

Task: Using known records, supply growth for `C=C1C(=O)O[C@H]2[C@H]1CC/C(COC(=O)/C=C\C(=O)NCc1ccc(Cn3c(=O)sn(CCCl)c3=O)cc1)=C\CC[C@@]1(C)O[C@@H]21`
Result: 116
